# Species on record: Homo sapiens
# PROCEDURE DETAILS: To identify inhibition of the IFN signalling (Jak-Stat) pathway via expression of an eGFP reporter gene under the control of an IFN-stimulated response element (ISRE) containing MxA promoter.
# Format: functional
# Parameters: scale not given: direction of the effect not stated beside the values
# MEASUREMENT SETUP: 30 µM
QUANTITY KIND: Percent Effect (%)

{"columns": ["COMPOUND", "QUANTITY KIND", "UNIT OF MEASUREMENT", "MEASURED RESULT"],
 "data": [
  ["CC(C)c1nccn1C1CCCN(C(=O)c2cnc[nH]2)C1 (centres undefined)", "Percent Effect", "%", -0.618],
  ["Cc1nc(C)n(CC2CCCN(CCc3ccccn3)C2)n1 (centres undefined)", "Percent Effect", "%", 3.25],
  ["Cc1nc(CN2CCOC(CN(C)c3cccnn3)C2)cs1 (centres undefined)", "Percent Effect", "%", 10.8],
  ["CCc1noc(CN2CCN(C(=O)N(C)C)CC2)n1", "Percent Effect", "%", 23.4],
  ["COCC(=O)N1CC[C@H]2C[C@@H](c3nnc(C4CC4)o3)O[C@@H]2C1", "Percent Effect", "%", -2.44],
  ["CCCc1nnsc1C(=O)NCC1CCN(c2ccccn2)CC1", "Percent Effect", "%", 25.2],
  ["COCCNC(=O)c1sc(Nc2ccc(Cl)cn2)nc1C", "Percent Effect", "%", 5.99],
  ["N#Cc1ccccc1N1CCCN(C(=O)CCn2cccn2)CC1", "Percent Effect", "%", 3.94],
  ["CCc1cc(N2CCCNCC2)n2nc(C)c(C)c2n1", "Percent Effect", "%", 12.2],
  ["CC(C)N1CCc2c(C#N)c(NCc3ccco3)n3cnnc3c2C1", "Percent Effect", "%", -16.1],
  ["CCC(C)(NCC(=O)Nc1nc(C)cs1)c1nc(C)cs1 (centres undefined)", "Percent Effect", "%", 21],
  ["CC[C@@H](CO)NC(=O)c1coc(COc2ccc(OC)cc2)n1", "Percent Effect", "%", -2.06],
  ["Nc1nccc(NCc2cc3n(n2)CCCN(C2CCCCC2)C3)n1", "Percent Effect", "%", 2.07],
  ["O=C(C1CCOCC1)N1CCc2ncnc(-c3ccc(F)cc3)c2CC1", "Percent Effect", "%", -4.53],
  ["c1sc(C2CCCC2)nc1CN1CCn2c(nnc2C2CC2)C1", "Percent Effect", "%", 37.1],
  ["c1nc(CCC2CCCN2)cc(N2CCCOCC2)n1 (centres undefined)", "Percent Effect", "%", 10.3],
  ["COc1ccc(OCCCNC(=O)NCc2csc(C)n2)cc1", "Percent Effect", "%", 20.4],
  ["Cc1ccc(C(=O)NS(=O)(=O)c2cc(Cl)ccc2Cl)c(=O)[nH]1", "Percent Effect", "%", 32],
  ["CC(NCc1ccc(F)cc1)c1ccc(OCC(=O)NC2CC2)cc1 (centres undefined)", "Percent Effect", "%", 17]
]}
